- tgt: Leucine-rich repeat serine/threonine-protein kinase 2 (Homo sapiens, UniProt Q5S007, G2019S)
- Sequence (Q5S007 whole entry G2019S): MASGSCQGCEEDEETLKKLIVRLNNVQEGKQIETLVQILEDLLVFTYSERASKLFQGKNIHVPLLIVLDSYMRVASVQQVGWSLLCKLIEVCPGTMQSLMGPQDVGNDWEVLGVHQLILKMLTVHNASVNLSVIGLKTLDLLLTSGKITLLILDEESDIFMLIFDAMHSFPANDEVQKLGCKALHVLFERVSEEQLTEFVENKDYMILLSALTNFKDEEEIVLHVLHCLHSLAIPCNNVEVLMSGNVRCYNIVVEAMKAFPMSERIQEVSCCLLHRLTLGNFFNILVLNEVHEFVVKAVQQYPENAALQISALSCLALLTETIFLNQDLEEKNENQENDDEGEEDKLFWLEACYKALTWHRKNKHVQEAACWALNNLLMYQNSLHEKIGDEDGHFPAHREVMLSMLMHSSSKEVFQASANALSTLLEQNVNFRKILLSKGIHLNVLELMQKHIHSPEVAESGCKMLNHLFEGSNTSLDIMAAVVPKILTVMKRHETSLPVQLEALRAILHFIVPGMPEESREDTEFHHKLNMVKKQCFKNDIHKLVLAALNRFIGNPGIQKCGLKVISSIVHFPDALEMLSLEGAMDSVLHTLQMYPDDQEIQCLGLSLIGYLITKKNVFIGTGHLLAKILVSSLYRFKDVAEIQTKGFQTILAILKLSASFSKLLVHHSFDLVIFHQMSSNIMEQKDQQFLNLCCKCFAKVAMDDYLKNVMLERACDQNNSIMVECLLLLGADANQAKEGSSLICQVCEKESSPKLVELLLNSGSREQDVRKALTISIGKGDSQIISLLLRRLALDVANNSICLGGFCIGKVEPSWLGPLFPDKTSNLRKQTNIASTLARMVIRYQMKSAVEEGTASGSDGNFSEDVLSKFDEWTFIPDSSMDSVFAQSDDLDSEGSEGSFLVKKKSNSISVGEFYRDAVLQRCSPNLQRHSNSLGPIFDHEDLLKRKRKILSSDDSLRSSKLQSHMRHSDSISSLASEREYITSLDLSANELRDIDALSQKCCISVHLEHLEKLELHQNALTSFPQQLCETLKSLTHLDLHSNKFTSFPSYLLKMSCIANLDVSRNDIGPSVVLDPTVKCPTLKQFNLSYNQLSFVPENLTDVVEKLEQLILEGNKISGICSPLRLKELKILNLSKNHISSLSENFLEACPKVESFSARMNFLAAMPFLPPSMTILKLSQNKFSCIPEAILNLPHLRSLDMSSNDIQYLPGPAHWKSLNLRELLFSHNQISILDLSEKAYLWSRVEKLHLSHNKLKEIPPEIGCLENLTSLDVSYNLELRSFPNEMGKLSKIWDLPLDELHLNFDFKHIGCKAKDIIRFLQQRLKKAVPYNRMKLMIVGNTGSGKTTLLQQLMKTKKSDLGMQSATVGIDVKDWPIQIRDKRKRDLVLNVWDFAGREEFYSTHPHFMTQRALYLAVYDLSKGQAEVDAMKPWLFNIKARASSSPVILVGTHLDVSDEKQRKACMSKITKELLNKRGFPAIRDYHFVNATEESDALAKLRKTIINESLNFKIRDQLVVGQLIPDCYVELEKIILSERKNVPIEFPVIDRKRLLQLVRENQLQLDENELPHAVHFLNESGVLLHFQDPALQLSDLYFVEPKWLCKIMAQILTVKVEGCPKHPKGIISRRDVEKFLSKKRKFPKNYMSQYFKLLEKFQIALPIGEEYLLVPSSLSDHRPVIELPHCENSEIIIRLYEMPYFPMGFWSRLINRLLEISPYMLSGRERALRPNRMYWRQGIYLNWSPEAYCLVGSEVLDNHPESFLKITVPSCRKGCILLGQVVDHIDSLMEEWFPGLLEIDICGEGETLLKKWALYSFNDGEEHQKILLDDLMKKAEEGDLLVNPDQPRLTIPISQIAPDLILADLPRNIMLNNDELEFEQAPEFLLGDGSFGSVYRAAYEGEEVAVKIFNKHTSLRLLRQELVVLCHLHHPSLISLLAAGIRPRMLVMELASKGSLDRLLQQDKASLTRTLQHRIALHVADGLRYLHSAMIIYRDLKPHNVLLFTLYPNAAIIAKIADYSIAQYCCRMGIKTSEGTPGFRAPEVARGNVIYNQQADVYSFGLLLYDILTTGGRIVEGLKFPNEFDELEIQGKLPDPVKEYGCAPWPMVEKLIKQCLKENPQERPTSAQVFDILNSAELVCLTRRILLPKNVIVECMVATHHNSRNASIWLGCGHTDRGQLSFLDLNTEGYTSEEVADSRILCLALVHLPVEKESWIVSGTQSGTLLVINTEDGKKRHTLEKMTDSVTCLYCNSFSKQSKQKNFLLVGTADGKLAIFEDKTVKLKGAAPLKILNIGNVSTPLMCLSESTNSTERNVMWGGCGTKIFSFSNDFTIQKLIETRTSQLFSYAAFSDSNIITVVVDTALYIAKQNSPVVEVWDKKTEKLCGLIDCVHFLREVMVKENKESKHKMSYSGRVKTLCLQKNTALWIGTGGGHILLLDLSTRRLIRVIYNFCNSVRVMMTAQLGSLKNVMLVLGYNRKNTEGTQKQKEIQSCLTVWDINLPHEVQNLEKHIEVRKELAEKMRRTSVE
- assaySummary: Inhibition of LRRK2 G2019S mutant (unknown origin) using LRRKtide as substrate incubated for 60 mins in presence of ATP by ADP-Glo reagent based assay
measurementType: pIC50
Hey, just a heads up that pIC50 is the negative log base 10 of the concentration in molar.

Example entries and their recorded answers appear below.
* Fc1ccc(-c2n[nH]cc2/C=N\Nc2nc3ccccc3[nH]2)cc1 | 5.31
* Cn1cccc1-c1cc(C(=O)N/N=C2/C(=O)Nc3ccccc32)[nH]n1 | 5.44
* CNC(=O)c1sc2ccc(NC(=O)c3n[nH]c4ccccc34)cc2c1OC | 5.68

Query block: Quickly give me recorded pIC50 for "CC[C@](C)(Nc1ccnc(-c2c[nH]c3ncccc23)n1)C(=O)NCC(F)(F)F"
Result block: 6.66

Query block: Consider the molecule "O=C(Nc1n[nH]c2ccccc12)c1cc(-c2cccnc2)n[nH]1" and give its recorded pIC50.
Result block: 6.25

Query block: Using the record for "Cl.c1cc(OCCN2CCCCC2)cc(-c2n[nH]c3ccc(-c4nc[nH]n4)cc23)c1" , state its measured pIC50.
Result block: 7.65

Query block: Quote pIC50 reported for "c1ccc2c(c1)ncn1nc(-c3cc(C4CC4)[nH]n3)nc21" please.
Result block: 5.25

---

- tgt: Leucine-rich repeat serine/threonine-protein kinase 2 (Homo sapiens, UniProt Q5S007, G2019S)
- assaySummary: Inhibition of 3xFlag-Puro-tagged human LRRK2 G2019S mutant phosphorylation at Ser935 residue overexpressed in HEK293T cells incubated for 24 hrs by SDS-PAGE analysis
- Format: cell-based
Below is a list of entries, each paired with its recorded IC50 value.
Hi! Could you send only the number? It should be in nM, unit omitted.

Examples with answers:
- COc1cc(C(=O)N2CCC(N3CCN(C)CC3)CC2)ccc1Nc1ncc2c(n1)N(C)c1ccccc1C(=O)N2C: 22.1
- CC[C@](C)(Nc1ccnc(-c2c[nH]c3ncccc23)n1)C(=O)NCC(F)(F)F: 337
- O=C(Nc1n[nH]c2ccccc12)c1cc(-c2cccnc2)n[nH]1: 605

Below: the item to evaluate.
Query block: Give the measured IC50 for "Cl.c1cc(OCCN2CCCCC2)cc(-c2n[nH]c3ccc(-c4nc[nH]n4)cc23)c1"
Result block: 49.1

---

# IC50 annotations
- tgt: Leucine-rich repeat serine/threonine-protein kinase 2 (Homo sapiens, UniProt Q5S007)
- Sequence (Q5S007 whole entry): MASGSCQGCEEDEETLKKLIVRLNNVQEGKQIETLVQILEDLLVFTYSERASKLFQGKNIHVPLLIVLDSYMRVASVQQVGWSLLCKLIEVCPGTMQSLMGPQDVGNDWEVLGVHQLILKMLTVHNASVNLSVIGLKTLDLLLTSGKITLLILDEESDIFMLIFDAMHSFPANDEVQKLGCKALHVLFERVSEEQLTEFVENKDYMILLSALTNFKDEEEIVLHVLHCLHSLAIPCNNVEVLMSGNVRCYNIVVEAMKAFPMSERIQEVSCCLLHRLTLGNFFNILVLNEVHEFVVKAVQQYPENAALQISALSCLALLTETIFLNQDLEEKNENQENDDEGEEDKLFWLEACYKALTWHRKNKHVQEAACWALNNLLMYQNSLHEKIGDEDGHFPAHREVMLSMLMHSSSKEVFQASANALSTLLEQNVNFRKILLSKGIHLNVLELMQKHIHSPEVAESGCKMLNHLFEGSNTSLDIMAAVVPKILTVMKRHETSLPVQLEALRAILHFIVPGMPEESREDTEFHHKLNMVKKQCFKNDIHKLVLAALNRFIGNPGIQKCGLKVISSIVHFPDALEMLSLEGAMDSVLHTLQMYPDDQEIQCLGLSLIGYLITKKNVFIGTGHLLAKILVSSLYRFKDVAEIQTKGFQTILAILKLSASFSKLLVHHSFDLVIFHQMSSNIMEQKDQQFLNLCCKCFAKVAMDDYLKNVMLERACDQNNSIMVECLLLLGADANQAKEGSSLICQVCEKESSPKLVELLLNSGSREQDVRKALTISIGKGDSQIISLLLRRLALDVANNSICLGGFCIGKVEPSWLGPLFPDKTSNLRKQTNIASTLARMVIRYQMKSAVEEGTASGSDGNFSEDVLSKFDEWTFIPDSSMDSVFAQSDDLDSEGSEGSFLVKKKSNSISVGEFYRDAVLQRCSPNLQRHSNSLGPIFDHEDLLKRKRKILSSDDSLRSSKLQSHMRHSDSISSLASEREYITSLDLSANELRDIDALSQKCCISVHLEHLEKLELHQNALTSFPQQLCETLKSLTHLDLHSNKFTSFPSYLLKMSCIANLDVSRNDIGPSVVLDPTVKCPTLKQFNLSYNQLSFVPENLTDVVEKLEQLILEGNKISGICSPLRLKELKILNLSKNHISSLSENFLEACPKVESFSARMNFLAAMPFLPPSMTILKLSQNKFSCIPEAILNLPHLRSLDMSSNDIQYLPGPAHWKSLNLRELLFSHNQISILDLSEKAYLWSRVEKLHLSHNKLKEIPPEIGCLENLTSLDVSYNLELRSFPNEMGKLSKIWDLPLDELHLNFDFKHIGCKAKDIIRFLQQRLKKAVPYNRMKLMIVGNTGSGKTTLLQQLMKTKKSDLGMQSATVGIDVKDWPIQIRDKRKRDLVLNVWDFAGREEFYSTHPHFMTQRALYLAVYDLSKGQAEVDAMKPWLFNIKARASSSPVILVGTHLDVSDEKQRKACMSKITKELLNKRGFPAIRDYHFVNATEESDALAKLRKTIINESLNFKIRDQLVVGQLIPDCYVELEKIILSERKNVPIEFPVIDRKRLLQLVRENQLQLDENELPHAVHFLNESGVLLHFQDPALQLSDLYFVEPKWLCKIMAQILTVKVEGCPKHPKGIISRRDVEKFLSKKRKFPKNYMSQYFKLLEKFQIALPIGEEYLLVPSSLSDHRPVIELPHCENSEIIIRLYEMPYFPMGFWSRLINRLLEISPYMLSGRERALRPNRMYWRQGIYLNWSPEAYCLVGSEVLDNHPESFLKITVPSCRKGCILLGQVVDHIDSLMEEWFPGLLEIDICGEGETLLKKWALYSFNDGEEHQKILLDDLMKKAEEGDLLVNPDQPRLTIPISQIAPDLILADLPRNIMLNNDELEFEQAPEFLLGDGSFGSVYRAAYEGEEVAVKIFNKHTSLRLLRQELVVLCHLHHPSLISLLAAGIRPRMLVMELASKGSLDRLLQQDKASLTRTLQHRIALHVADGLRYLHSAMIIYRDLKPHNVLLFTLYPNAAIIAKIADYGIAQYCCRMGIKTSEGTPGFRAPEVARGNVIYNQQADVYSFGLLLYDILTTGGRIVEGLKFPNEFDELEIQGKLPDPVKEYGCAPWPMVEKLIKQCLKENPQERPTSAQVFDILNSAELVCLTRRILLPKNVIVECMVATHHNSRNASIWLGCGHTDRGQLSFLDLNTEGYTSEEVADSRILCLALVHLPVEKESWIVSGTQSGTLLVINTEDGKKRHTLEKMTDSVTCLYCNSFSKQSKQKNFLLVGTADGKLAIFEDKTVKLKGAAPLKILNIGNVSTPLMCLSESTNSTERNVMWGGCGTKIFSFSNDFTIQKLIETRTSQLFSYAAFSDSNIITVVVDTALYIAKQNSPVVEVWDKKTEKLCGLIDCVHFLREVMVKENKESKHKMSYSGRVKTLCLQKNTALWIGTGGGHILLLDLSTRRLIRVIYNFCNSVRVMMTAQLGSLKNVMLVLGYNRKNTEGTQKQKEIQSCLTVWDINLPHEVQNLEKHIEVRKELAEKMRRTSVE
- assaySummary: Inhibition of 3xFlag-Puro-tagged wildtype human LRRK2 phosphorylation at Ser935 residue overexpressed in HEK293T cells incubated for 24 hrs by SDS-PAGE analysis
- Type: cell-based
# output: bare number, implied unit nM

- COc1cc(C(=O)N2CCC(N3CCN(C)CC3)CC2)ccc1Nc1ncc2c(n1)N(C)c1ccccc1C(=O)N2C: 17

Query block: Tell me its IC50 on Leucine-rich repeat serine/threonine-protein kinase 2 (Homo sapiens, UniProt Q5S007): "CC[C@](C)(Nc1ccnc(-c2c[nH]c3ncccc23)n1)C(=O)NCC(F)(F)F"
Result block: 1670

Query block: Find IC50 for "Cl.c1cc(OCCN2CCCCC2)cc(-c2n[nH]c3ccc(-c4nc[nH]n4)cc23)c1" on Leucine-rich repeat serine/threonine-protein kinase 2 (Homo sapiens, UniProt Q5S007) and write it down.
Result block: 27.1

Query block: Under Leucine-rich repeat serine/threonine-protein kinase 2 (Homo sapiens, UniProt Q5S007): report IC50 of "O=C(Nc1n[nH]c2ccccc12)c1cc(-c2cccnc2)n[nH]1" .
Result block: 1190

---

- tgt: Leucine-rich repeat serine/threonine-protein kinase 2 (Homo sapiens, UniProt Q5S007)
- assaySummary: Inhibition of wild type LRRK2 (unknown origin) using LRRKtide as substrate incubated for 60 mins in presence of ATP by ADP-Glo reagent based assay
measurementType: pIC50
Entry type: numeric. Quantity: pIC50, the -log10 of concentration in molar units.

* Cl.c1cc(OCCN2CCCCC2)cc(-c2n[nH]c3ccc(-c4nc[nH]n4)cc23)c1 | 8.02
* Cn1cccc1-c1cc(C(=O)N/N=C2/C(=O)Nc3ccccc32)[nH]n1 | 4.40
* COc1cc(C(=O)N2CCC(N3CCN(C)CC3)CC2)ccc1Nc1ncc2c(n1)N(C)c1ccccc1C(=O)N2C | 8.51
* c1ccc2c(c1)ncn1nc(-c3cc(C4CC4)[nH]n3)nc21 | 5.15
* O=C(Nc1n[nH]c2ccccc12)c1cc(-c2cccnc2)n[nH]1 | 6.10
* Fc1ccc(-c2n[nH]cc2/C=N\Nc2nc3ccccc3[nH]2)cc1 | 5.51
* CC[C@](C)(Nc1ccnc(-c2c[nH]c3ncccc23)n1)C(=O)NCC(F)(F)F | 5.87

Query block: Please list pIC50 recorded for the compound "CNC(=O)c1sc2ccc(NC(=O)c3n[nH]c4ccccc34)cc2c1OC"
Result block: 4.30

---

- tgt: Leucine-rich repeat serine/threonine-protein kinase 2 (Homo sapiens, UniProt Q5S007)
- assaySummary: Inhibition of wild type LRRK2 (unknown origin) using LRRKtide as substrate at 10 uM incubated for 60 mins in presence of ATP by ADP-Glo reagent based assay relative to control
Recorded inhibition, one value per entry.

Illustrative cases are given below, each with its answer.
- CC[C@](C)(Nc1ccnc(-c2c[nH]c3ncccc23)n1)C(=O)NCC(F)(F)F: > 80%
- CNC(=O)c1sc2ccc(NC(=O)c3n[nH]c4ccccc34)cc2c1OC: > 50%
- c1ccc2c(c1)ncn1nc(-c3cc(C4CC4)[nH]n3)nc21: > 50%
- O=C(Nc1n[nH]c2ccccc12)c1cc(-c2cccnc2)n[nH]1: > 80%
- Cn1cccc1-c1cc(C(=O)N/N=C2/C(=O)Nc3ccccc32)[nH]n1: > 50%
- c1cc(OCCN2CCCCC2)cc(-c2n[nH]c3ccc(-c4nnc[nH]4)cc23)c1: > 80%

Okay, now this compound:
Query block: Give the measured inhibition for "Fc1ccc(-c2n[nH]cc2/C=N\Nc2nc3ccccc3[nH]2)cc1"
Result block: > 50%

---

- Tested on: Leucine-rich repeat serine/threonine-protein kinase 2 (Homo sapiens), Q5S007 [G2019S]
- Sequence (Q5S007 whole entry G2019S): as the sequence (Q5S007 whole entry G2019S) above
- assaySummary: Inhibition of LRRK2 G2019S mutant (unknown origin) using LRRKtide as substrate at 10 uM incubated for 60 mins in presence of ATP by ADP-Glo reagent based assay relative to control
measurementType: inhibition

Reference set (6 entries):
• O=C(Nc1n[nH]c2ccccc12)c1cc(-c2cccnc2)n[nH]1 = > 80%
• CC[C@](C)(Nc1ccnc(-c2c[nH]c3ncccc23)n1)C(=O)NCC(F)(F)F = > 80%
• CNC(=O)c1sc2ccc(NC(=O)c3n[nH]c4ccccc34)cc2c1OC = > 50%
• Fc1ccc(-c2n[nH]cc2/C=N\Nc2nc3ccccc3[nH]2)cc1 = > 50%
• c1ccc2c(c1)ncn1nc(-c3cc(C4CC4)[nH]n3)nc21 = > 50%
• c1cc(OCCN2CCCCC2)cc(-c2n[nH]c3ccc(-c4nnc[nH]4)cc23)c1 = > 80%

Proceeding to the next compound to report its inhibition.
Query block: Output measured inhibition for this item: "Cn1cccc1-c1cc(C(=O)N/N=C2/C(=O)Nc3ccccc32)[nH]n1"
Result block: > 50%
